src = PubChem BioAssay AID792

target under test: S. cerevisiae eIF2B mutant, luciferase reporter luminescence
assay text: potency on yeast eIF2B luminescence signal – S. cerevisiae, mutant, wild-type, growth, dose response (AID 792)
measurement conditions: measured here: mutant yeast growth
pIC50: −log10 of the molar value. Records with an inconclusive call do not appear.

# compound, target under test, pIC50
measured = [
    ("O=C(CCC1COc2ccccc2O1)Nc1ccc(Cl)cn1 (stereo unspecified)", "S. cerevisiae eIF2B mutant, luciferase reporter luminescence", "< 4.00"),
    ("N#Cc1c(N2CCOCC2)nc(-c2ccco2)c2c1CCCC2", "S. cerevisiae eIF2B mutant, luciferase reporter luminescence", "< 4.00"),
    ("CCCCN(Cc1ccccc1)S(=O)(=O)c1ccc2[nH]c(=O)oc2c1", "S. cerevisiae eIF2B mutant, luciferase reporter luminescence", "< 4.00"),
    ("O=c1c(Cl)c(NCCCO)cnn1-c1nc2ccccc2[nH]1", "S. cerevisiae eIF2B mutant, luciferase reporter luminescence", 4.54),
    ("Cc1cc(=O)[nH]c(SCc2cc(Cl)ccc2OC(F)F)n1", "S. cerevisiae eIF2B mutant, luciferase reporter luminescence", "< 4.00"),
    ("CN(C)S(=O)(=O)c1cccc(NC(=O)COC(=O)c2ccc(Br)o2)c1", "S. cerevisiae eIF2B mutant, luciferase reporter luminescence", "< 4.00"),
]

---

target under test: S. cerevisiae eIF2B mutant, luciferase reporter luminescence
assay text: potency on yeast eIF2B luminescence signal – S. cerevisiae, mutant, wild-type, growth, dose response (AID 792)
measurement conditions: measured here: mutant yeast growth
Inconclusive results are not listed.
Listed here: items and their measured IC50.
observed property: IC50

# compound, observed property, result
data = [
    ("CCCCn1nnnc1SCC(=O)N1CCOCC1", "IC50", "> 100 µM"),
    ("Cc1cc(N)n2nc(-c3ccc(C(C)(C)C)cc3)cc2n1", "IC50", "30.1 µM"),
    ("COc1ccc(Cl)cc1-n1c(N)c(C(N)=O)sc1=S", "IC50", "> 100 µM"),
    ("O=C(OCCn1cncn1)c1cc2ccccc2oc1=O", "IC50", "> 100 µM"),
    ("O=C(NC(Cc1ccccc1)C(=O)OCC(=O)N1CCc2ccccc21)c1ccco1 (stereo unspecified)", "IC50", "> 100 µM"),
    ("COc1ccc(S(=O)(=O)N2CCCCC2)cc1C(C)C", "IC50", "> 100 µM"),
]

---

# IC50 per record follows
target under test: S. cerevisiae eIF2B mutant, luciferase reporter luminescence
assay text: potency on yeast eIF2B luminescence signal – S. cerevisiae, mutant, wild-type, growth, dose response (AID 792)
measurement conditions: S. cerevisiae wild-type, luminescence
Records with an inconclusive call do not appear.

# compound, target under test, display unit, result modifier, IC50
measured = [
    ("Cc1ccnc2nc(C(=O)Nc3ccc(N4CCOCC4)cc3)nn12", "S. cerevisiae eIF2B mutant, luciferase reporter luminescence", "µM", "=", 11.1),
    ("COc1ccc(-c2cc3nc(C)cc(N)n3n2)cc1", "S. cerevisiae eIF2B mutant, luciferase reporter luminescence", "µM", "=", 3.87),
    ("COc1ccc(CCNC(=O)c2ccc(N3CCCC3=O)cc2)cc1OC", "S. cerevisiae eIF2B mutant, luciferase reporter luminescence", "µM", ">", 100),
    ("Oc1ccc2ccc3cccc[n+]3c2c1", "S. cerevisiae eIF2B mutant, luciferase reporter luminescence", "µM", ">", 100),
    ("CCc1ccc2c(c1)C1(NN=C(c3ccc(C)cc3)S1)C(=O)N2 (stereo not given)", "S. cerevisiae eIF2B mutant, luciferase reporter luminescence", "µM", ">", 100),
]

---

target under test: S. cerevisiae eIF2B mutant, luciferase reporter luminescence
assay text: potency on yeast eIF2B luminescence signal – S. cerevisiae, mutant, wild-type, growth, dose response (AID 792)
Inconclusive results are not listed. The source made the active and inactive calls. No rule for the calls is given here.
observed property: IC50

# compound, observed property, result
data = [
    ("CCOC(=O)c1sc(N)c(C#N)c1CSc1nc2ccc(C)cc2[nH]1", "IC50", "> 100 µM (inactive)"),
    ("COc1ccc(C2SCC(=O)Nc3c2c(C)nn3C2CCOC(C)(C)C2)cc1 (stereo not given)", "IC50", "> 100 µM (inactive)"),
    ("Cn1c(/N=C/c2c(O)ccc3ccccc23)nc2ccccc21", "IC50", "> 100 µM (inactive)"),
    ("O=C(c1c[nH]c2ccc(S(=O)(=O)N3CCOCC3)cc2c1=O)N1CCCC1", "IC50", "> 100 µM (inactive)"),
    ("CCOC(=O)N1CCN(C(=O)c2ccc(N3CCCC3=O)cc2)CC1", "IC50", "> 100 µM (inactive)"),
    ("O=C(Nc1cccnc1)c1ccccc1Oc1ccccc1", "IC50", "> 100 µM (inactive)"),
    ("Cc1ccc(C)c(N2CCN(C(=O)c3ccc(CS(=O)(=O)c4ccccc4C)o3)CC2)c1", "IC50", "> 100 µM (inactive)"),
    ("COC(=O)c1cccc(NC(=O)c2ccc(S(=O)(=O)N3CCN(C)CC3)cc2)c1", "IC50", "> 100 µM (inactive)"),
    ("CCN1CCN(c2cc(-c3ccccc3)nc3cc(-c4cccc(F)c4)nn23)CC1", "IC50", "inactive"),
    ("CCN1CCN(c2cc(C(C)(C)C)nc3c(-c4ccccc4)c(C)nn23)CC1", "IC50", "inactive"),
]

---

target under test: S. cerevisiae eIF2B mutant, luciferase reporter luminescence
assay text: potency on yeast eIF2B luminescence signal – S. cerevisiae, mutant, wild-type, growth, dose response (AID 792)
measurement conditions: S. cerevisiae wild-type, luminescence
Results filed as inconclusive are left out.

# molecule, IC50
records = [
    ("COc1ccc(OC)c(N/C(C)=C/C(=O)c2ccc(C)o2)c1", "> 100 µM"),
    ("COc1ccc(C(=O)/C=C/Nc2ccccn2)cc1", "18.3 µM"),
    ("CC(C)NC(=O)CCNS(=O)(=O)c1ccc(Br)cc1", "> 100 µM"),
    ("O=C(Nc1ccccn1)c1cc2ccccc2o1", "4.46 µM"),
    ("COc1ccc(NC(=O)N2CCc3ccccc32)cc1", "6.14 µM"),
    ("CC(C)Cc1nnc(NC(=O)CC(=O)Nc2ccccc2C(=O)O)s1", "65.4 µM"),
    ("COc1cc(S(=O)(=O)N(Cc2cccnc2)Cc2ccco2)ccc1-n1cnnn1", "> 100 µM"),
    ("O=c1c(Cl)c(NCCCO)cnn1-c1nc2ccccc2[nH]1", "15.9 µM"),
    ("Cc1csc(NC(=O)c2cccn2C)n1", "16.4 µM"),
    ("Cc1cc(=O)[nH]c(N=N/C(=N/Nc2ccc(O)cc2)c2ccccc2)n1", "45.2 µM"),
    ("O=C(Nc1cccnc1)c1noc2c1CCCCC2", "97.3 µM"),
    ("Cc1ccc(CN(CC2CCCO2)C(=O)CN2C(=O)C(C(C)C)Oc3ccccc32)o1 (stereo not given)", "> 100 µM"),
    ("COC(=O)c1nn(-c2ccc3c(c2)CCN3C(C)=O)cc1O", "3.61 µM"),
    ("O=C1c2ccccc2C(=O)C1c1ccncc1", "17.9 µM"),
    ("CC(=O)/C=C(\\C)Nc1ccc(-c2cnc(-c3ccccc3)o2)cc1", "> 100 µM"),
    ("O=c1/c(=C/c2ccc(O)cc2)sc2n1CCCN=2", "2.11 µM"),
    ("Cc1ccc(C(=O)Nc2ncc(C)s2)o1", "17.6 µM"),
    ("CCN(CC)c1ccc(NC(=O)c2cccc(OC)c2)c(C)c1", "> 100 µM"),
    ("CCN1CCN(c2cc(-c3ccccc3)nc3cc(-c4cccc(F)c4)nn23)CC1", "6.87 µM"),
    ("O=c1c(Cl)c(N2CCCCC2)cnn1-c1nc2ccccc2[nH]1", "3.69 µM"),
    ("Nc1nnnn1/N=C/c1ccc(O)cc1", "2.78 µM"),
    ("COc1cccc(Oc2cn[nH]c2-c2ccc(OC)cc2O)c1", "44.1 µM"),
    ("O=C(C1CCN(S(=O)(=O)N2CCOCC2)CC1)N1CCOCC1", "> 100 µM"),
    ("Cc1cc(C(=O)Nc2ccccc2)oc1C", "84.2 µM"),
    ("Cc1c(O)c(CN2CCCC2)cc2c1oc(=O)c1ccccc12", "> 100 µM"),
]
